These measurements were taken from the supplement of paper PMC9170038.

# Tested on: MS2 coat protein
# measurement.description: apparent KD of MS2 coat protein; designed switch direction (-1 OFF switch, 1 ON switch): -1; higher = weaker reporter binding
# experimental.parameters: input ligand: microRNA oligo, concentration not stated
measure: apparent KD of MS2 coat protein (nM)
State the answer as a number, implicitly in nM.

**Query** Quick check: apparent KD of MS2 coat protein on MS2 coat protein, item AUAAAUCAUGUAGGAUAUGCGUGGCAAAGCUAUGCAGAAGGACAUGAGGAUCACCCAUGUCUUUCCGUCUGAGUACAGACGGGA [Mat - Exclusion NG 1 - Mod of JL - D47] (Eterna round: R96, puzzle: Exclusion NG 1) ?
**Result** 21.1

**Query** Now consider CGGUGUAACAGAGGAUAUGAGCGCAACUGACGAUCAGAAGGCUGACAUGAGGAUCACCCAUGUGAUUUCUCAAUAUUAUACAUC [Prohibition 89 - Jieux - Exclusion NG 1] (Eterna round: R96, puzzle: Exclusion NG 1) and answer again.
**Result** 324

**Query** Try GCACGGAGUGUAGGAUAUCUGUGCGAUUAGCUCAGAGAAGGACACAUGAGGAUCACCCAUGUGUUCCACGGAAACGUACCGUGC [Eli exng1 - 050] (Eterna round: R96, puzzle: Exclusion NG 1) next.
**Result** 8.87

**Query** Also check UAUAUAUAGUAAGGAUAUGUAAUUAUUUCAUAAACAGAAGGUACUGACAUGAGGAUCACCCAUGUUUUAGUGUGGGCAUGUAGA [JMF's solution 43] (Eterna round: R96, puzzle: Exclusion NG 1)
**Result** 60.2

**Query** UAUAGGCUAGGAUAUACAACACUUGGUUCGAAUGUUUGGAGACAUGAGGAUCACCCAUGUAGAAGGAGCAUUUC [Leleis] (Eterna round: R96, puzzle: Exclusion 2) ?
**Result** 54

**Query** What do you get for UUGUUUUCCGCAGGAUAUGCUCCUCCAUUACUAGCAGAAGGGCGUUGAACAUGAGGAUCACCCAUGUAUGUAAUUGCUUAUUGC [JR_ExcNG1_Sub073] (Eterna round: R96, puzzle: Exclusion NG 1) ?
**Result** 14.8

**Query** Can you handle AGCUAGUGCCGAGGAUAUACAUGAGGAUCACCCAUGUAAGCCAGUCGGUUUCUGACUGGCAAUAUGUAGAAGGCGGCGUUGGCA [JL ENG2 1.49] (Eterna round: R96, puzzle: Exclusion NG 2) next?
**Result** 11.3

**Query** And what about the sequence GGUGCCCGACAAGGAUAUAAGAUACAGAAAACCUUAGAAGGUGUCACAUGAGGAUCACCCAUGUGGUCCGGCACCAAUAACUCC [Inedraor] (Eterna round: R96, puzzle: Exclusion NG 1) ?
**Result** 18.1

**Query** Cool, now UACCUGAGGCAAAGCUUUAGGUAUACAUGAGGAUCACCCAUGUAGGAUAUGGUAGGCUUUGCUUACCAGAAGGACAUGUUAAUU [Mat - Exclusion NG 3 - Mod of JL - D32] (Eterna round: R96, puzzle: Exclusion NG 3)
**Result** 30.4

**Query** Try the sequence GCACGGAUGGUAGGAUAUCAGUGCGAUUAGCUCUGAGAAGGACCACAUGAGGAUCACCCAUGUACCUCAAUUAUCCUUCCGUGC [Eli exng1 - 022] (Eterna round: R96, puzzle: Exclusion NG 1)
**Result** 11.3

**Query** Record: CUGCUCCGUGUAGGAUAUGCGCGCAACCAACGCGCAGAAGGACAUGAGGAUCACCCAUGUAUGUUAUUAUCACGUGAAGCGUCC [Design 30] (Eterna round: R96, puzzle: Exclusion NG 1)
**Result** 19.9

**Query** Quick one: AGCUAGUCAGUAGGAUAUGUAGGAUAUGUGGUUGAGGUUCACCCAACCACAUCAACGACAGAAGGACAGAAGGACUGGUUAGCA [pwkr exNG2 2xFMN 1xF5.5] (Eterna round: R96, puzzle: Exclusion NG 2)
**Result** 1210

**Query** // query: UUUGGUUUGCGAGGAUAUGCUUUUAGUAAGUUAGCAGAAGGCGCGUUACAUAGAACCUCUUGUUACAUGAGGAUCACCCAUGUU [JR_ExcNG1_Sub037] (Eterna round: R96, puzzle: Exclusion NG 1)
**Result** 77.3

**Query** Would you mind doing AAGGGUGCUUUCAGAACGACAUGAGGAUCACCCAUGUAGACUGAGGAUAUCUACUUCUAAGGACGGGAGAAGGCAGUGUAAUGC [Ex NG3 #68] (Eterna round: R96, puzzle: Exclusion NG 3) as well?
**Result** 19.5

**Query** Now consider AAAUUCUGAGGAUAUCGAUGUUUGUACAUGAGGAUCACCCAUGUCCUUUUUAUUUUUUCUCGAGAAGGCAGUGUAU [JR_E5_Sub100] (Eterna round: R96, puzzle: Exclusion 5) and answer again.
**Result** 32

**Query** And for UUAAUUAAUAAUUAAGAUCAUUACAUGAGGAUCACCCAUGUCGAGGAUAUCAGCUCGUGUAGAGCUGAGAAGGCGACAAAUUAU [ExNG3/13-B3] (Eterna round: R96, puzzle: Exclusion NG 3) ?
**Result** 268

**Query** Similarly, CUCGUGCAGCUUUGCUGUACGAGUACAUGAGGAUCACCCAUGUAGGAUAUGGUACGCAAAGCGUGCCAGAAGGACGUGCGUUAG [Mat - Exclusion NG 3 - Mod of JL - D93] (Eterna round: R96, puzzle: Exclusion NG 3) ?
**Result** 29.9

**Query** // repeat for UUAUUAUAUGUAGGAUAUGCGUAUUAUUGUUAUGCAGAAGGACAUGAGGAUCACCCAUGUAUAUUAUUGUUAUAUAUUGUAUAU [Title] (Eterna round: R96, puzzle: Exclusion NG 1) and report
**Result** 19.8

###

Would you mind telling me the reported apparent KD of K4 kissing-loop reporter of each entry?
# Test system: K4 kissing-loop RNA reporter;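 note: bound reporter read as fluorescence of individual clusters on recovered sequencing chips by microscopy, with normalized cluster intensities fitted with a binding model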
# measurement.description: apparent KD of K4 kissing-loop reporter; higher = weaker reporter binding
# experimental.parameters: Eterna round: R107; input ligand: none
Could you give me the number in nM? Just the number is fine.

**Query** What does the data say about its apparent KD of K4 kissing-loop reporter? Entry: CCGUGGAGUGAUGUUCCACGUUCUACGGAUACCAGCUUUGCCAAAGGCCCUUGGCAGCCGCACCUUGCAGUGAUGUUGUGAGGCU [Same State Theophylline A Gf7]
**Result** 305

**Query** Now the same for AGUAUGUAAUAUGGCAUAUUUAGAACUGAAGGAGCGCCGAAUAAGGCAGGUAGGUCGCGGUUUUAUGAGUGAUGUUCUUGUUUAA [KL-SSArg-A24]
**Result** 149

**Query** Lookup AAGUCUCGUUAAUUCGUGGUUUCGAUCGAUACCAGUAGCGAGAGGUACCCUUGGCAGCGAAAUGAGUGAUGUUCAUGAAAGAAGA [KL-XTheoA11]
**Result** 111

**Query** Entry to check: UAUUAAUUGUCAGGAUAUCGUAUUCGAGUGAUGUUCGUAUAUCGACGAUAGUCGAUUCUAUCUAUACGAGAAGGGACAUUAUUUA [JR_SSFMNB_Sub007]
**Result** 1090

**Query** Then what about the sequence GUGAUAUCGCAAGGAUAUCCAAUUUCUGCGGAUAAGUGAUGUUUGGCGCCGCCUCAGUUAUGGCAAGGAGAAGGUGCGGCCUAGC [theeternabot_sameState_KL_FMN_B_28] ?
**Result** 428

**Query** Can you check UCAGAGAACGAAGGAUAUUGACCUGUUUUAUGCUAUGAGUGAUGUUCUUAGUAUCAGCGAGAUGAUCAAGAAGGUCGGGUUCGAC [theeternabot_sameState_KL_FMN_B_48] next?
**Result** 197

###

# System: MS2 coat protein
# measurement.description: apparent KD of MS2 coat protein; designed switch direction (-1 OFF switch, 1 ON switch): 1; higher = weaker reporter binding
# experimental.parameters: input ligand: none
measure: apparent KD of MS2 coat protein
Your reply should be a number followed by the unit it is expressed in.

**Query** So what's the measured apparent KD of MS2 coat protein for this one? AGUAGUGUAACAUGAGGAUCACCCAUGUAAGAAGAUGUAACCUAGGAUAUGGAUGUUAUGUUUGACCAGAAGGAGGAUUGUUUA [JR_SSNG3_Sub040] (Eterna round: R96, puzzle: Same State NG 3)
**Result** 37.1 nM

**Query** Would you mind doing GGUACCAUCACAGGAUAUGCUAUCCUUUGGGUAGCAGAAGGGUGAAACAUGAGGAUCACCCAUGUGGUGCCAGGGCGUGAGCCC [JL SSNG1 1.92] (Eterna round: R96, puzzle: Same State NG 1) as well?
**Result** 689 nM

**Query** And then CGGGAAAUCGUAGGAUAUCUAGGAUAUGAACGAGGAUCACCCGAGCAGCAUCAGCGCAUCAGAGGAGAGAAGGACGAUGAUGCG [pwkr ssNG2 2F5 2FMN.17] (Eterna round: R96, puzzle: Same State NG 2) , what is it?
**Result** 65.7 nM
